Every entry's value here was drawn from PubChem BioAssay (NCI).

Tested on: SN12C renal
Assay explanation: NCI-60 one-dose screen, 48 h
Test settings: 10 µM unless noted
About 83,000 compounds went through this panel and 20% of them were active in at least one assay; those are over-represented in the sample as a whole. Active and inactive are the calls of the source. Rule for the calls: active = growth percent below 10; inactive = the rest.
Classes used: true (active), false (inactive)

Compound	Test target	Category label
C=C1CCC2C3(C)COC(c4ccccc4F)OC3CCC2(C)C1CC(O)C1=CCOC1=O (centres undefined)	SN12C renal	false
CC(=O)Nc1cccc(Nc2nc(NCc3ccccc3)c3ccccc3n2)c1	SN12C renal	true
CCCS(=O)(=O)N1CCCC(C(=O)Nc2nc3ccc(NC(=O)c4ccc(F)c(OC)c4F)cc3s2)C1 (centres undefined)	SN12C renal	false
COc1ccc(/C=C/c2nc3ccccc3c(=O)n2CC(=O)Nc2ccc(OC)cc2)cc1	SN12C renal	false
OCNc1ccc(-n2cnc3cc(-c4ccc(O)cc4)ccc32)cc1C(F)(F)F	SN12C renal	false
CC1CCCCN1CCCNC(=O)N/C(N)=N/c1nc2ccccc2s1 (centres undefined)	SN12C renal	false
O=C(C1=CNC(=S)NC1c1ccc(O)cc1)c1cc2ccccc2oc1=O (centres undefined)	SN12C renal	false
COc1ccc(C2CC(c3ccc(S(=O)(=O)NCCNc4nc(Nc5ccc(F)cc5)nc(N(C)C)n4)cc3)=Nc3c(N)nc(N)nc3N2)cc1 (centres undefined)	SN12C renal	false
CC(=O)N1CCN(Cc2ccc3c(NNC(=O)c4cnccn4)nc4cc(F)ccc4n23)CC1	SN12C renal	false
